Tested on: chamomile (scentless chamomile, Matricaria inodora)
Assay: Test E pre-/postemergence plant response
Format: in vivo
Conditions: Tripleurospermum inodorum, post-emergence; 62 g ai/ha, Postemergence; scale 0 to 100; read-out: Plant response rating, Chamomile
Readout: pest or weed control at 62 g/ha

> print(dat)
                       structure.as.smiles                          readout  readout.value
1  FC(F)(F)c1cc(-c2ccccc2Oc2ncc(Cl)cn2)no1  pest or weed control at 62 g/ha            10%
2  Fc1cccc(Oc2ncc(Cl)cn2)c1-c1cc(C(F)F)no1  pest or weed control at 62 g/ha            80%
3     FC(F)c1cc(-c2ccccc2Oc2ncc(Br)cn2)no1  pest or weed control at 62 g/ha             5%
4  Fc1cccc(Oc2ncc(Br)cn2)c1-c1cc(C(F)F)no1  pest or weed control at 62 g/ha            30%

Source: patent US10131652B2
